Target Of Assay: Somatostatin receptor type 1 (Homo sapiens, UniProt P30872)
Sequence (P30872 whole entry): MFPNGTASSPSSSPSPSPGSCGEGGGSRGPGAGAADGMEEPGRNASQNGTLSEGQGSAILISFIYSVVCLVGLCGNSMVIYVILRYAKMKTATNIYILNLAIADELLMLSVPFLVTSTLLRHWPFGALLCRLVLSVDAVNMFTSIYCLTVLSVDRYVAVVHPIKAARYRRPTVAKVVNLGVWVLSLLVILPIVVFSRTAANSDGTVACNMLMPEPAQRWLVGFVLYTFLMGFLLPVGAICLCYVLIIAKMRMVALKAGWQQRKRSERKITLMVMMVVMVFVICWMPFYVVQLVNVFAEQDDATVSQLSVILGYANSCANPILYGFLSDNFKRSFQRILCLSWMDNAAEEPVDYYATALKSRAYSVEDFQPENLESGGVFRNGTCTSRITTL
Reported Property: IC50

[ask] Item CC(Oc1ccccc1C1CC1)C(=O)N[C@H]1CCNC[C@@H]1F (stereo partly specified) with Somatostatin receptor type 1 (Homo sapiens, UniProt P30872) - IC50?
[reply] > 50.1 µM
